# Tested on: L1210
# method.summary: Cell growth inhibition against mouse leukemia L1210/R81 cells
# Type: functional, cell-based
metric.name: IC50 (µM)
Reply with just the number (in µM).

## Input Which IC50 reading was recorded for the molecule CN(Cc1cnc2nc(N)nc(N)c2n1)c1ccc(C(=O)N[C@@H](CCC(=O)O)C(=O)O)cc1 [METHOTREXATE] ?
## Output 220

====

# Tested on: CCRF-CEM
# method.summary: Cell growth inhibition against CEM/MTX cell from human leukemic lymphoblasts
# Assay type: functional, cell-based
This listing pairs compounds with measured IC50.
A complete answer gives the number and then names the unit.

compound	target.under.test	IC50
CN(Cc1cnc2nc(N)nc(N)c2n1)c1ccc(C(=O)NC(CCC(=O)OC(C)(C)C)C(=O)O)cc1 (configuration not stated)	CCRF-CEM	0.5 µM

## Input What value of IC50 has been recorded for this entry: CC(C)(C)OC(=O)CCC(NC(=O)c1ccc(NCc2cnc3nc(N)nc(N)c3n2)cc1)C(=O)O (configuration not stated)
## Output 25 µM

====

# System: L1210
# method.summary: Cell growth inhibition against mouse leukemia L1210 cells
# Assay type: functional, cell-based
metric.name: IC50 (nM)
Use nM as the unit, but write only the number.

Would you please look over these solved cases?
compound	endpoint.unit	experimental.value
CC(C)(C)OC(=O)CCC(NC(=O)c1ccc(NCc2cnc3nc(N)nc(N)c3n2)cc1)C(=O)O (centres undefined)	nM	23
CN(Cc1cnc2nc(N)nc(N)c2n1)c1ccc(C(=O)N[C@@H](CCC(=O)O)C(=O)O)cc1 [METHOTREXATE]	nM	2
Nc1nc(N)c2nc(CNc3ccc(C(=O)N[C@@H](CCC(=O)O)C(=O)O)cc3)cnc2n1	nM	2

Now turn to the next compound.
## Input I would be grateful if you could share the reported IC50 for CN(Cc1cnc2nc(N)nc(N)c2n1)c1ccc(C(=O)NC(CCC(=O)OC(C)(C)C)C(=O)O)cc1 (centres undefined) .
## Output 56

====

Consider the following molecules and their measured pIC50 readings.
# method.summary: Cell growth inhibition against human squamous cell carcinoma (SCC25/R1) line
# Type: functional
# details: SCC-25
Lab note: report pIC50 as minus log10 of the concentration in molar units, number only.

molecule	metric.name	experimental.value
CN(Cc1cnc2nc(N)nc(N)c2n1)c1ccc(C(=O)NC(CCC(=O)OC(C)(C)C)C(=O)O)cc1 (configuration not stated)	pIC50	6.11

Read the next record carefully.
## Input I would be grateful if you could share the reported pIC50 for CC(C)(C)OC(=O)CCC(NC(=O)c1ccc(NCc2cnc3nc(N)nc(N)c3n2)cc1)C(=O)O (configuration not stated) .
## Output 5.74

====

# method.summary: Cell growth inhibition against human squamous cell carcinoma (SCC68/R1) line
# Assay type: functional
Catalogue of pIC50 values
API: returns pIC50 as number; meaning -log10 of concentration in mol/L.

compound	experimental.value
CN(Cc1cnc2nc(N)nc(N)c2n1)c1ccc(C(=O)N[C@@H](CCC(=O)O)C(=O)O)cc1 [METHOTREXATE]	6.60

// switching to the query compound
## Input Item under review: `Nc1nc(N)c2nc(CNc3ccc(C(=O)N[C@@H](CCC(=O)O)C(=O)O)cc3)cnc2n1` . Reported pIC50?
## Output 6.54

====

# Test system: L1210
# method.summary: Cell growth inhibition against mouse leukemia L1210/R81 cells
# Format: functional, cell-based
pIC50 values by entry
pIC50 is defined as minus the log10 of a concentration measured in mol/L.

## Input Recorded pIC50 for Nc1nc(N)c2nc(CNc3ccc(C(=O)N[C@@H](CCC(=O)O)C(=O)O)cc3)cnc2n1 [AMINOPTERIN] , please?
## Output 4.08

## Input Any idea what pIC50 was measured for CN(Cc1cnc2nc(N)nc(N)c2n1)c1ccc(C(=O)NC(CCC(=O)OC(C)(C)C)C(=O)O)cc1 (stereo not drawn) ?
## Output 4.60

## Input Name the recorded pIC50 for CC(C)(C)OC(=O)CCC(NC(=O)c1ccc(NCc2cnc3nc(N)nc(N)c3n2)cc1)C(=O)O (stereo not drawn) .
## Output 5.19
